Here the recorded absorbance is given for each entry.
- assayTarget: T1, monkey EphA4 extracellular domain-SEAP-His protein (monkey)
- T1 construct: the fusion as a whole has none; not shown: SEAP-His part
- T1 sequence (chain, as listed by the source): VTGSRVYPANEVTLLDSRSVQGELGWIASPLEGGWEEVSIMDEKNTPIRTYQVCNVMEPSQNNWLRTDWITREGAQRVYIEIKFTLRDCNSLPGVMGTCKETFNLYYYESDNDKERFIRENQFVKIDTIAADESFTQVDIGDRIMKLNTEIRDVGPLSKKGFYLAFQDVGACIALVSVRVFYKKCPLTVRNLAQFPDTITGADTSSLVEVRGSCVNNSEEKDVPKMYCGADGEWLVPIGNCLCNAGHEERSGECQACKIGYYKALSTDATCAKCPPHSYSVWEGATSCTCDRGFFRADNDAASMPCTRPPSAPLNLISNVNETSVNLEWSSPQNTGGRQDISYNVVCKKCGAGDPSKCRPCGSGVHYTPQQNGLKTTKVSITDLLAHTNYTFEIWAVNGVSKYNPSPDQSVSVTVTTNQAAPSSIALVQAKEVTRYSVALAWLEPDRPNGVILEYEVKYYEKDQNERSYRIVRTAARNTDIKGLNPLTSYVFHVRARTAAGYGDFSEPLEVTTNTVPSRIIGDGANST
- experimentSummary: ELISA
The answer should be a number; do not append a unit.

Noted for KPEP11_05 (antibody, V domains shown, Rabbit IgG; also called anti-human EphA4 rabbit monoclonal antibody KPEP11_05) VH: QSLEESGGRLVTPGGSLTLTCTVSGIDLSSYAMSWVRQAPEKGLEWIGFINNYGTYYASWAKGRFTISKTSTTVDLKVTSLTTEDTATYFCVRGGRSPNYDIVSGDIWGPGTLVTVSS VL: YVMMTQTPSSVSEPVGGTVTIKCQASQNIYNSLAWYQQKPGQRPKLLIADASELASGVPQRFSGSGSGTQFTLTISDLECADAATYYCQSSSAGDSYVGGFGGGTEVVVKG : its absorbance reads 1.24

Noted for KPEP11_07 (antibody, V domains shown, Rabbit IgG; also called anti-human EphA4 rabbit monoclonal antibody KPEP11_07) VH: QEQLKESGGRLVTPGGSLTLTCTVSGIDLSSYAMSWVRQAPEKGLEWIGFINMYGTYYASWAKGRFTISRTSTTVDLKVTSLTTEDTATYFCVRGGRSPDYDIVSGDIWGPGTLVTVSS VL: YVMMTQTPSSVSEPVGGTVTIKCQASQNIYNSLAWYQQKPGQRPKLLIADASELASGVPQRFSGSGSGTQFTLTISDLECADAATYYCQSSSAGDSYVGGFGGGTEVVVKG : its absorbance reads 1.18

Noted for KPEP11_18 (antibody, V domains shown, Rabbit IgG/kappa; Used coated or HRP-labeled in the sandwich ELISAs; also called anti-human EphA4 rabbit monoclonal antibody KPEP11_18; HRP-labeled KPEP11_18) VH: QSLEESGGRLVTPGTPLTLTCTISGFSLSSFYINWVRQAPGRGLEWIGIIYPDIDATDYASWVKGRFTISKTSTTVDLKITSPTTEDTATYFCARSDVDYYTTRLDLWGQGTLVTVSS VL: DPMMTQTASPVSAAVGGTVSISCQSNKSVYSNWLSWFQQKPGQPPKLLIYGASTLASGVPSRFKGSGSGTQFTLTVSDVQCDDAATYFCLGGYRDNSDNAFGGGTEVVVKG : its absorbance reads 1.18

Hello, the source for this data is patent US20240385190A1, in case you need it.
